// data source = patent US20200392228A1

- System Tested: T1, mouse MAdCAM expressed on cells (mouse, UniProt Q61826 22-405)
- T1 construct: whole, on cells
- T1 sequence (looked up): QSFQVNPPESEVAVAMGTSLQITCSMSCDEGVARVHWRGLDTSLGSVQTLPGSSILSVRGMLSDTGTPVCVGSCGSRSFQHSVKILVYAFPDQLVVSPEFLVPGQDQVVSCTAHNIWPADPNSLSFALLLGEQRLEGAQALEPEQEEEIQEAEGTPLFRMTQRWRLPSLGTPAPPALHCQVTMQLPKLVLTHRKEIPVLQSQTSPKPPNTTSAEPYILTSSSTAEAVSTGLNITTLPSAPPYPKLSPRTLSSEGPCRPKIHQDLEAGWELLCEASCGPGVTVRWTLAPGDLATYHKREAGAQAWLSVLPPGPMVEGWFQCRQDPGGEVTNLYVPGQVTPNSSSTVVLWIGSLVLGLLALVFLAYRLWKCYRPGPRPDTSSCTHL
- Assay Procedure: cell binding

Binder: MAdCAM antibody Clone ID 17 of Table 6 (scFv) (scFv) scFv: EVQLLESGGGLVQPGGSLRLSCAASGFTFSDSAMHWVRQAPGKGLEWVSAISGSGSTIYYADSVKGRFTISRDNSKNTLYLQMNSLRAEDTAVYYCVSDIAVAGHWYFDLWGRGTLVTVSSGGGGSGGGGSGGGGSGGGGSDIQMTQSPSSLSASVGDRVTITCRASQSISTFLNWYQQKPGKAPKLLIYAASRLEGGVPSRFSGSGSGTDFTLTISSLQPEDFATYYCQQANSFPLTFGPGTKVDIK
binding result: no binding
//
Binder: MAdCAM antibody Clone ID 29 of Table 6 (scFv) (scFv) scFv: QVQLVQSGAEVKKPGASVKVSCKASGYTFTSYYMHWVRQAPGQGLEWMAWMNPNSGNTGYAQKFQGRVTMTRDTSTSTVYMELSSLRSEDTAVYYCARDYDFWSGSLGYWGQGTLVTVSSGGGGSGGGGSGGGGSGGGGSDIQMTQSPSSLSASVGDRVTITCRASQGISNYLAWYQQKPGKAPKLLIYAASSLQSGVPSRFSGSGSGTDFTLTISSLQPEDFATYYCQQSYSTPWTFGQGTKVEIK
binding result: no binding
//
Binder: MAdCAM antibody Clone ID 16 of Table 6 (scFv) (scFv) scFv: EVQLLESGGGLVQPGGSLRLSCAASGFTFEDYAMHWVRQAPGKGLEWVSYLNSDGGSTSYADSVKGRFTISRDNSKNTLYLQMNSLRAEDTAVYYCAKDYCTNGVCAFDYWGQGTLVTVSSGGGGSGGGGSGGGGSGGGGSDIQMTQSPSSLSASVGDRVTITCRASQSISTYLNWYQQKPGKAPKLLIYDASNLETGVPSRFSGSGSGTDFTLTISSLQPEDFATYYCQQSYTIPITFGQGTRLEIK
binding result: no binding
//
Binder: MAdCAM antibody Clone ID 48 of Table 6 (scFv) (scFv) scFv: EVQLLESGGGLVQPGGSLRLSCAASGFTFSDHGMHWVRQAPGKGLEWVSVIYGGESTYYADSVKGRFTISRDNSKNTLYLQMNSLRAEDTAVYYCARDPAVAGGGIFDYWGQGTLVTVSSGGGGSGGGGSGGGGSGGGGSDIQMTQSPSSLSASVGDRVTITCRASQGISNYLAWYQQKPGKAPKLLIYDASNLETGVPSRFSGSGSGTDFTLTISSLQPEDFATYYCQQSYSTCYTFGQGTKLEIK
binding result: no binding
//
Binder: MAdCAM antibody Clone ID 66 of Table 6 (scFv) (scFv) scFv: EVQLLESGGGLVQPGGSLRLSCAASGFTFSSYWMHWVRQAPGKGLEWVAAISYDGKYKDYEDSVKGRFTISRDNSKNTLYLQMNSLRAEDTAVYYCARENKQWLASFDYWGQGTLVTVSSGGGGSGGGGSGGGGSGGGGSDIQMTQSPSSLSASVGDRVTITCQASQDISNFVNWYQQKPGKAPKLLIYAANLRSGVPSRFSGSGSGTDFTLTISSLQPEDFATYYCQQANSFPVTFGPGTKVDIK
binding result: binds
